- System: monocyte/macrophages
- ASSAY EXPLANATION: MTS staining for cell viability, monocyte/macrophages
- Format: cell-based, human
READOUT LABEL: CC50 (nM)
Give bare numbers, in nM.

// lookup CC50 for `Cc1cn([C@H]2C[C@H](N=[N+]=[N-])[C@@H](CO)O2)c(=O)[nH]c1=O` 1000

###

- Test system: Subtype F BR/93/020
- ASSAY EXPLANATION: PBMC assay, HIV-1 subtype F
- Type: cell-based
- PROTOCOL CONDITIONS: Subtype F BR/93/020, PBMC; read-out: IC50
READOUT LABEL: IC50 (nM)
Answers are plain numbers, in nM.

// lookup IC50 for Cc1cn([C@H]2C[C@H](N=[N+]=[N-])[C@@H](CO)O2)c(=O)[nH]c1=O [AZT] 3
